The origin of these recorded values is patent US11001590B2.

Listing of recorded log10 EC50 by entry.
tgt: C. elegans Slo-1a (Caenorhabditis elegans, UniProt Q95V25)
Sequence (Q95V25 whole entry): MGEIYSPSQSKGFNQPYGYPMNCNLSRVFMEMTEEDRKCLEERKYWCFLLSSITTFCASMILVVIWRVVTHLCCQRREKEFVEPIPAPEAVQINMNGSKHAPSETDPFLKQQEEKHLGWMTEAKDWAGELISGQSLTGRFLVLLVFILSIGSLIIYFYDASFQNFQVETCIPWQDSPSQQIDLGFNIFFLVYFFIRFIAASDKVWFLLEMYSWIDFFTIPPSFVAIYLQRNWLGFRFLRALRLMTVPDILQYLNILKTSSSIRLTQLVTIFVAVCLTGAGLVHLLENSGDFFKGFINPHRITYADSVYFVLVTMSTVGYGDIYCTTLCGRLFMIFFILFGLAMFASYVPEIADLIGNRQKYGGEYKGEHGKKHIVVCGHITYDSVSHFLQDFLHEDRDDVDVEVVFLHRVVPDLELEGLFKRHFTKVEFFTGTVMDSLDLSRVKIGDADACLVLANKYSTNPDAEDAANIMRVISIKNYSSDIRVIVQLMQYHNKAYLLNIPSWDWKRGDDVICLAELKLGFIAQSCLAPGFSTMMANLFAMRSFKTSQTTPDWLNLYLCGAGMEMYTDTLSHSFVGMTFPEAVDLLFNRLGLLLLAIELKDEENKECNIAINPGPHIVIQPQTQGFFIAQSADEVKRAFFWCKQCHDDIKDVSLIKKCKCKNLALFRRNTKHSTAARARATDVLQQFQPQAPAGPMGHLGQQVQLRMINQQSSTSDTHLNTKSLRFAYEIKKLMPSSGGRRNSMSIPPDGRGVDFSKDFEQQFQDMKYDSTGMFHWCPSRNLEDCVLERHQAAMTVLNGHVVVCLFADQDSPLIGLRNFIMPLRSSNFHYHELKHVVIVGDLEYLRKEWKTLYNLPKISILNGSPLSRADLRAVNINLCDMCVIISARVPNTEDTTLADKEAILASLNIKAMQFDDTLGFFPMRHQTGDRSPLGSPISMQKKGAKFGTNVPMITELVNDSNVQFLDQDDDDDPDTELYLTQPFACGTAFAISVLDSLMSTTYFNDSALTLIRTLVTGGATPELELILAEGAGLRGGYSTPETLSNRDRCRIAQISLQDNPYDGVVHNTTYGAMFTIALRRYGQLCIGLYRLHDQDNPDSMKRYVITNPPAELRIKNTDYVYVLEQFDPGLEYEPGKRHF
protocol-description: In vitro assay 1: C. elegans Slo-1a, action at a recombinant C. elegans CHO cell line (membrane potential measurement)
Values below are the log10 of the recorded EC50, with nM as the unit.

Please review the entries below; each comes with its answer.
item-smiles | log10 EC50
Cc1nn2c(C(C)C)c(C(=O)N[C@H]3CCc4ccccc43)cnc2c1-c1cccc(F)n1 | 2.90
Cc1nn2c(C(C)C)c(C(=O)N[C@H]3CCc4ccccc43)cnc2c1-c1cccc(F)c1 | 1.20
Cc1nn2c(C(C)C)c(C(=O)N[C@H]3CCCc4ccccc43)cnc2c1-c1ccc(F)c(F)c1 | 1.80
Cc1nn2c(C(C)C)c(C(=O)N[C@H]3CCOc4ccccc43)cnc2c1-c1cccc(Cl)n1 | 2.20
COCc1cccc(-c2c(C)nn3c(C4CC4)c(C(=O)N[C@H]4CCOc5ccccc54)cnc23)c1 | 0.90
Cc1nn2c(C(C)C)c(C(=O)N[C@H]3CCOc4ccccc43)cnc2c1-c1ccc(Cl)cc1Cl | 0.90

From here, focus on the item given below.
Quick one: log10 EC50 of Cc1nn2c(C(C)C)c(C(=O)N[C@H]3CCc4ccccc43)cnc2c1-c1cccc(OC(F)(F)F)c1 ?
1.50

* * *

tgt: C. elegans Slo-1a (Caenorhabditis elegans, UniProt Q95V25)
protocol-description: In vitro assay 1: C. elegans Slo-1a, action at a recombinant C. elegans CHO cell line (membrane potential measurement)
parameter: EC50 (nM)
Express your answer in nM, writing the number without its unit.

Solved entries (count: 5):
molecule | tgt | EC50 [nM]
CC(C)c1c(C(=O)N[C@H]2CCc3ccccc32)cnc2c(-c3cccc(F)c3)c(C(F)F)nn12 [Example 429] | C. elegans Slo-1a (Caenorhabditis elegans, UniProt Q95V25) | 39.8
Cc1nn2c(C(C)C)c(C(=O)N[C@H]3CCc4ccccc43)cnc2c1-c1cccc(COCC(F)(F)F)c1 [Example 367] | C. elegans Slo-1a (Caenorhabditis elegans, UniProt Q95V25) | 158
Cc1nn2c(C(C)C)c(C(=O)N[C@H]3CCc4ccccc43)cnc2c1-c1cccc(-n2cccn2)c1 [Example 328] | C. elegans Slo-1a (Caenorhabditis elegans, UniProt Q95V25) | 39.8
Cc1nn2c(C(C)C)c(C(=O)N[C@H]3CCOc4ccccc43)cnc2c1-c1cccc(OC(C)C)c1F [Example 188] | C. elegans Slo-1a (Caenorhabditis elegans, UniProt Q95V25) | 12.6
Cc1nn2c(C(C)C)c(C(=O)N[C@H]3CCOc4ccccc43)cnc2c1-c1ccc2cc[nH]c2c1 [Example 243] | C. elegans Slo-1a (Caenorhabditis elegans, UniProt Q95V25) | 631

# input molecule: Cc1nn2c(C3CC3)c(C(=O)N[C@H]3CCc4ccccc43)cnc2c1-c1cccc(N2CC(F)C2)c1 [Example 466] ; wanted: its EC50
10

Name the reported EC50 value associated with the molecule CC(C)c1c(C(=O)N[C@H]2CCc3ccccc32)cnc2c(-c3ccccc3F)c(C(F)(F)F)nn12 [Example 158]
158

* * *

tgt: C. elegans Slo-1a (Caenorhabditis elegans)
protocol-description: In vitro assay 1: C. elegans Slo-1a, action at a recombinant C. elegans CHO cell line (membrane potential measurement)
parameter: EC50 (µM)
Number in µM, nothing else.

Example cases with answers are listed next.
item-smiles | reported-result
Cc1nn2c(C3CC3)c(C(=O)N[C@H]3CCOc4ccccc43)cnc2c1-c1cccc(F)c1Cl | 0.00158
Cc1nn2c(C(C)C)c(C(=O)N[C@H]3CCc4ccccc43)cnc2c1-c1cccc(CN(C)C)c1 | 1.58
COc1c(F)ccc(-c2c(C)nn3c(N4CCOCC4)c(C(=O)N[C@H]4CCOc5ccccc54)cnc23)c1F | 0.00126

Would you kindly look at the next entry?
# input molecule: Cc1nn2c(C)c(C(=O)N[C@H]3CCc4ccccc43)cnc2c1-c1cc(Cl)cc(Cl)c1 ; wanted: its EC50
7.94
